The reader will find reported pKd values listed item by item below.
target_system: pre-miR21
test_method_notes: 1D 1H NMR ligand-detect titration of compounds with pre-miR21 RNA
Format: binding, human
setup_conditions: 100 μM compound, 50 mM deuterated Tris pH 6.5, 250 mM NaCl, 50 mM KCl, 2 mM MgCl2; approximate; read-out: Kd (fit of NMR titration data to binding isotherm)
Please report pKd as the negative decimal logarithm of the molar concentration, giving only the number.

{"record_smiles": "O=c1[nH]c(Nc2ccc(N3CCNCC3)cn2)nc2cnccc12", "recorded_measurement": 6.70}

Ask: I would be grateful if you could share the reported pKd for "O=c1[nH]c(Nc2ccc(N3CCNCC3)cn2)nc2cccnc12" .
Reply: 6.22
